- system.name: helicase domain of the Pol θ protein (Homo sapiens, UniProt O75417)
- Construct: The helicase domain of the Pol θ protein was purified from insect protein expression system; made in house; host or cells: insect protein expression system
- Sequence (O75417 102-554 limits assumed): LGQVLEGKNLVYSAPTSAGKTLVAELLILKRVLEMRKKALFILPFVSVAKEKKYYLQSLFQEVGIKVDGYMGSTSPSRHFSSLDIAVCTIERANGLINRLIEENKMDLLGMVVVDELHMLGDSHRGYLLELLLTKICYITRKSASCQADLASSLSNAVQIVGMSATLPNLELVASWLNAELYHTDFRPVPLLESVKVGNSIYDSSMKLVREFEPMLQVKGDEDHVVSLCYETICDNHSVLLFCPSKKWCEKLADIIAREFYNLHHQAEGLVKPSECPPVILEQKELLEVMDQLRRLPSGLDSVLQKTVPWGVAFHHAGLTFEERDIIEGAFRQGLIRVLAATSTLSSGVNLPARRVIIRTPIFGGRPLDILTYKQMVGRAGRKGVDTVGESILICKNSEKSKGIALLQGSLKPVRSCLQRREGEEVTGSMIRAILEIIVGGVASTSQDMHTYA
- assay.notes: Biochemical Activity Assay (ADP Glo Assay) of Pol θ inhibitor, ATPase activity
- test.conditions: ADP-Glo assay, ATPase activity of Pol θ helicase domain, ssDNA substrate; read-out: Biochemical assay IC50
property: IC50 (nM)

In [3]: df
Out[3]:
                                   compound                               system_name  property  reported_result
0  COc1cnc(Cl)cc1-c1cc(C)ncc1C(=O)Nc1nc2ncc(N(C)CCC(C)O)cc2s1 (stereo not shown) [Example 117]  helicase domain of the Pol θ protein (Homo sapiens, UniProt O75417)      IC50             7.28
1  COc1cnc(Cl)cc1-c1cc(C)ncc1C(=O)Nc1nc2ncc(CC(C)(C)O)cc2s1 [Example 93]  helicase domain of the Pol θ protein (Homo sapiens, UniProt O75417)      IC50             5.93
2  COc1cnc(Cl)cc1-c1cc(C)ncc1C(=O)Nc1nc2ccc(-c3ccncc3Cl)nc2s1 [Example 82]  helicase domain of the Pol θ protein (Homo sapiens, UniProt O75417)      IC50             6.71

1. COc1cnc(Cl)cc1-c1cc(C)ncc1C(=O)Nc1nc2cnc(N3CCC(O)CC3)cc2s1 [Example 51]
2. COc1cnc(Cl)cc1-c1cc(C)ncc1C(=O)Nc1nc2cnc(-c3c(C)cnn3C)nc2s1 [Example 157]
3. COc1cnc(Cl)cc1-c1cc(C)ncc1C(=O)Nc1nc2ncc(C3=CCC4(CC3)CN(C(C)=O)C4)cc2s1 [Example 184]
4. COc1cc(P(C)(C)=O)ccc1-c1cc(C)ncc1C(=O)Nc1nc2cnc(-c3c(C)cnn3C)cc2s1 [Example 153]
Arrange these compounds by their IC50, starting with the largest number. Dear reader, please state the labels in the requested order. 4, 3, 1, 2
(4: 24.4 nM, 3: 15.2 nM, 1: 9.5 nM, 2: 5.08 nM)
